Ref: paper PMC3906059

Target: TMEM16A (ANO1) (Mus musculus)
Construct: We subcloned the coding region of the cDNA into pEGFP-N3 vector; expressed in transfected cells; host or cells: HEK293 cells
Assay: Mg^2+ inhibition of Ca^2+-induced ANO1 current and shift of the Ca^2+-activation curve (Schild plot)
Assay type: cell-based
Details: ANO1 current induced by 0.666 µM free Ca^2+; fit to eq. 2; read-out: apparent half-inhibition concentration
QUANTITY_KIND: IC50
Write the figure, then the unit, nothing else.

Incoming: GET /values?readout=IC50&item= [Mg+2]
Outgoing: 5.4 mM

* * *

Biological target: TMEM16A (ANO1) (Mus musculus)
Construct: We subcloned the coding region of the cDNA into pEGFP-N3 vector; expressed in transfected cells; host or cells: HEK293 cells
Sequence (Q8BHY3 1-956 isoform Q8BHY3-2): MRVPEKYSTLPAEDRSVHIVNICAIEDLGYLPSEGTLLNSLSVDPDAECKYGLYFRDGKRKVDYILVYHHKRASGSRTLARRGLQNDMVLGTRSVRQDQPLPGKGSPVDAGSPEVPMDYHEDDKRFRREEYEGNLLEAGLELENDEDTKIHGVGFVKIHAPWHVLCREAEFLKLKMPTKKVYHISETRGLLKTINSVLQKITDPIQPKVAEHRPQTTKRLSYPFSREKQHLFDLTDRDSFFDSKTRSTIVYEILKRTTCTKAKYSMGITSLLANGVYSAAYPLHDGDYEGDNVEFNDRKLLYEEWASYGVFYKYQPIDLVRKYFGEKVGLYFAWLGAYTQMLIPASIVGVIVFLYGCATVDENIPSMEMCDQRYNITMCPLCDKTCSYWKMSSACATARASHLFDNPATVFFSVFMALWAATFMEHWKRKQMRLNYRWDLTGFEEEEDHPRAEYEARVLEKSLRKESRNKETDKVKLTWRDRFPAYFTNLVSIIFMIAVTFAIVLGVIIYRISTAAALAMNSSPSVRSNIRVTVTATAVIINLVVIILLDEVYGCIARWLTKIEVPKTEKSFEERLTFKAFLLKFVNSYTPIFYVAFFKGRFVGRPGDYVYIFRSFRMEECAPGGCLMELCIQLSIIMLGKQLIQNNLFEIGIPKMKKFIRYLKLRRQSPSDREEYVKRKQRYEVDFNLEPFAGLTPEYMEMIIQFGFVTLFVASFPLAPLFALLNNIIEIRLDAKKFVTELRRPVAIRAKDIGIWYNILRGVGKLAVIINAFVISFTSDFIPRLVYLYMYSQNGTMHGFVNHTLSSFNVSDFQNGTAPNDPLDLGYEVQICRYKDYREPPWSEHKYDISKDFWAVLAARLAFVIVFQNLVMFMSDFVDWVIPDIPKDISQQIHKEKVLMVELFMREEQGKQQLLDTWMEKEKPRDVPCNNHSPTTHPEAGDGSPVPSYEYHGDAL
Experiment: NFA inhibition of ANO1 current, intracellular application to inside-out patch
Type: cell-based
Settings: current activated by 404 µM [Ba^2+]; Vm = −20 mV; read-out: K1/2 of NFA inhibition
QUANTITY_KIND: IC50 (µM)
The reply should be a number in µM, with the unit left off.

Incoming: GET /values?readout=IC50&item= O=C(O)c1cccnc1Nc1cccc(C(F)(F)F)c1
Outgoing: 22.6
